Target: T1, recombinant full-length Tau protein, longest isoform (Tau 2N4R) (human, UniProt P10636-8 1-441, biotinylated with NHS-biotin for SPR; 15N-labelled for NMR)
T1 construct: range 1-441; Expressed in E. coli from pET15b-Tau; also called biotinylated-Tau; 15N-Tau
T1 sequence (P10636 other isoform, or with tags, fused parts or gaps limits assumed): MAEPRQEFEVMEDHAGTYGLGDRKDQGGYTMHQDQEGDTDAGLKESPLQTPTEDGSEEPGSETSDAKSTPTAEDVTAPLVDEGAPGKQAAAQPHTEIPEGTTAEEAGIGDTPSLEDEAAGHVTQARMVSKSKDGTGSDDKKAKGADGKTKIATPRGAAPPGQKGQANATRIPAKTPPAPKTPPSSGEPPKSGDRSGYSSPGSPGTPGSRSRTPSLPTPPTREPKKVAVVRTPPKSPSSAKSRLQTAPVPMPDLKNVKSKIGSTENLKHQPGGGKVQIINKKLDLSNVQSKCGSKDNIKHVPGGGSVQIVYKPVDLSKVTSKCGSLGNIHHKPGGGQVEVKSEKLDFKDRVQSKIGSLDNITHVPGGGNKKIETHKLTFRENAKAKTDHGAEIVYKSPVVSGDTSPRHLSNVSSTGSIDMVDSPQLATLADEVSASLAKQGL
Assay: SPR (Biacore T200), single-cycle kinetics, biotinylated Tau on streptavidin chip, VHH injected 0.125-2 µM
Protocol: Affinity measurements were performed on a BIAcore T200 optical biosensor instrument (GE Healthcare). Recombinant Tau proteins were biotinylated with 5 molar excess of NHS-biotin conjugates (Thermofisher) during 4 hours at 4° C. Capture of biotinylated Tau was performed on a streptavidin SA sensorchip in HBS-EP+ buffer (GE Healthcare). […] Dissociation equilibrium constants (Kd) was calculated as kon/Koff.
# kon annotations
The reply should be a number in M⁻¹ s⁻¹, with the unit left off.

Answered examples (3):
INSERT INTO results (binder, attribute_measured, measured_number) VALUES
  ('VHH Mut12 (VHH, Variant of Z70; also called VH Mut12) VHH: AEVQLQASGGVFVQSGGSLRLCCAASGATSTFDGMGWFRQAPGKEREFVSAISYEQGSYTYYADSVKGRFTISRDNSKNMVYLQMNSLRAEDTATYYCAPAYEGDLYAFDSYGEQGTQVTVSS', 'kon', 33900),
  ('VHH Mut9 (VHH, Variant of Z70; also called VH Mut9) VHH: EVQLQASGGVFVQSGGSLRLSCAASGATSTFDGMGWFRQAPGKEREFVSAISYEQGSYTYYADSVKGRFTISRDNSKNMVYLQMNSLRAEDTATYYCASAYEGDLYAFDSYGEQGTQVTVSS', 'kon', 40100),
  ('VHH Mut3 (VHH, Variant of Z70; also called VH Mut3) VHH: EVQLQASGGVFVQSGGSLRLSCAASGATSTFDGMGWFRQAPGKEKEFVSAISYEQGSYTYYADSVKGRFTISRDNSKNMVYLQMNSLRAEDTATYYCAPAYEGDLYAFDSYGGQGTQVTVSS', 'kon', 26000);

Need kon, item VHH Mut5 (VHH, Variant of Z70; also called VH Mut5) VHH: EVQLQASGGVFVQSGGSLRLSCAASGATSTFDGMGWFRQAPGKEREFVSAISYEQGSYTYYADSVKGRFTISRDNSKNMVYLQMNSLRAEDTASYYCAPAYEGDLYAFDSYGGQGTQVTVSS
10900
